Target: SIX1 homeodomain (reference allele) (human, UniProt Q15475 108-198)
Sequence: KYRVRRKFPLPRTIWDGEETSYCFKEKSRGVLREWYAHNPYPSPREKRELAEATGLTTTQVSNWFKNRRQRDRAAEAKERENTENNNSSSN
Assay: universal protein binding microarray; Universal all-10-mer PBM (8x60K, AMADID 030236), 300 nM GST-tagged protein, Alexa Fluor 488 anti-GST; buffer, salt, pH and temperature not stated (as in Berger); high values mean tight binding
Conditions: protein: ivt; tags: N-terminal GST; dsDNA, one strand shown
In all, about 33,000 sequences were measured (“e-score”: median about -0.053, highest 2% from about 0.38 on). The full list was thinned out, with the highest values kept by preference.
EXPERIMENTAL_READOUT: binding signal (E-score)
Provide only the numeric value, understood in E-score.

>>> print(df.to_string())
   sequence_entry                              study_system  reported
0        CAGCTATA  SIX1 homeodomain (reference allele) (human, UniProt Q15475 108-198)     0.172
1        GAAGGATA  SIX1 homeodomain (reference allele) (human, UniProt Q15475 108-198)     0.268
2        ATCTGCCA  SIX1 homeodomain (reference allele) (human, UniProt Q15475 108-198)     0.187

Next sequence, binding signal to be filled in.
Kindly indicate its recorded binding signal. Item: "CGGTATAA"
0.294

* * *

Target: SIX1 homeodomain (reference allele) (human, UniProt Q15475 108-198)
Sequence: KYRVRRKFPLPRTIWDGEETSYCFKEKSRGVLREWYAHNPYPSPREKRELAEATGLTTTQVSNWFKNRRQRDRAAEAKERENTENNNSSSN
Experiment: universal protein binding microarray; Universal all-10-mer PBM (8x60K, AMADID 030236), 300 nM GST-tagged protein, Alexa Fluor 488 anti-GST; buffer, salt, pH and temperature not stated (as in Berger); high values mean tight binding
Conditions: protein: ivt; tags: N-terminal GST; dsDNA, one strand shown
The full ranking holds about 33,000 sequences; the median of “e-score” is about -0.053, and the highest 2% start at about 0.38. Only a selection was taken, and the highest values are over-represented in it overall.
EXPERIMENTAL_READOUT: binding signal (E-score)
Provide only the numeric value, understood in E-score.

Below are worked cases with known answers.
>>> df
   sequence_entry  experimental_readout        u  reported
0        ATACGAGG        binding signal  E-score     0.232
1        ACGATCAT        binding signal  E-score     0.186

Under SIX1 homeodomain (reference allele) (human, UniProt Q15475 108-198): report binding signal of "GGAGTATA" .
0.319

Under SIX1 homeodomain (reference allele) (human, UniProt Q15475 108-198): report binding signal of "CTATCGTC" .
0.163

Under SIX1 homeodomain (reference allele) (human, UniProt Q15475 108-198): report binding signal of "GATCTCCC" .
0.361

Under SIX1 homeodomain (reference allele) (human, UniProt Q15475 108-198): report binding signal of "AGAGTATA" .
0.262

Under SIX1 homeodomain (reference allele) (human, UniProt Q15475 108-198): report binding signal of "TGTATCAA" .
0.41

Under SIX1 homeodomain (reference allele) (human, UniProt Q15475 108-198): report binding signal of "ATACGGAA" .
0.218

Under SIX1 homeodomain (reference allele) (human, UniProt Q15475 108-198): report binding signal of "ATCCACTG" .
0.152

# credit: paper PMC10668032
